TESTED TARGET: Neuropeptide FF receptor 1 (Homo sapiens)
Sequence (Q9GZQ6 whole entry): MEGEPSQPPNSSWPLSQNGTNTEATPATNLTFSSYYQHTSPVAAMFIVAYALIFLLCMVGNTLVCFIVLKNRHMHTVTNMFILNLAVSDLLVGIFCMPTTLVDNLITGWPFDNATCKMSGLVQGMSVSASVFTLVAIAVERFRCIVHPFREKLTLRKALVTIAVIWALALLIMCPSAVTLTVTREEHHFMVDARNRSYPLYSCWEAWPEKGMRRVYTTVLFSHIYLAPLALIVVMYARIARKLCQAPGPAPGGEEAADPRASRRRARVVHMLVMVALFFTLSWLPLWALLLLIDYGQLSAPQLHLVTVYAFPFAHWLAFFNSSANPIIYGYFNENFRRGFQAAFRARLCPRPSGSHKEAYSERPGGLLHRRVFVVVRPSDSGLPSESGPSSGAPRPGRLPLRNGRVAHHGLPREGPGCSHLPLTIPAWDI
ASSAY METHOD TEXT: Displacement of [3H]FFRF-NH2 from human flag-tagged NPFF1 receptor expressed in CHO cells at 5 uM by scintillation counting
Type: cell-based
This listing pairs compounds with measured inhibition.
API: value field is a number in %; no unit string.

In the examples that follow, each entry is paired with its recorded inhibition.
COc1ccc(/C=C/C(=O)N[C@@H](CCCNC(=N)N)C(=O)N[C@@H](Cc2ccccc2)C(N)=O)cc1 = 100
N=C(N)NCCC[C@H](NC(=O)CCN1c2ccccc2Sc2ccccc21)C(=O)N[C@@H](Cc1ccccc1)C(N)=O = 100
N=C(N)NCCC[C@H](NC(=O)c1cccc2ccccc12)C(=O)N[C@@H](Cc1ccccc1)C(N)=O = 90
COc1ccc(C(=O)N[C@@H](CCCNC(=N)N)C(=O)N[C@@H](Cc2ccccc2)C(N)=O)cn1 = 77
N=C(N)NCCC[C@H](NC(=O)c1[nH]c2ccccc2c1-c1ccccc1)C(=O)N[C@@H](Cc1ccccc1)C(N)=O = 92
N=C(N)NCCC[C@H](NC(=O)C(c1ccccc1)c1ccccc1)C(=O)N[C@@H](Cc1ccccc1)C(N)=O = 88
N=C(N)NCCC[C@H](NC(=O)c1cc2ccccc2[nH]1)C(=O)N[C@@H](Cc1ccccc1)C(N)=O = 86
Cc1ccc(CC(=O)N[C@@H](CCCNC(=N)N)C(=O)N[C@@H](Cc2ccccc2)C(N)=O)cc1 = 72

Inquiry: # inhibition lookup, item N=C(N)NCCC[C@H](NC(=O)/C=C/c1cccc(O)c1)C(=O)N[C@@H](Cc1ccccc1)C(N)=O
Reply text: 80

Inquiry: And then N=C(N)NCCC[C@H](NC(=O)Cc1ccccc1O)C(=O)N[C@@H](Cc1ccccc1)C(N)=O , what is it?
Reply text: 92

Inquiry: And then N=C(N)NCCC[C@H](NC(=O)c1nc2ccccc2[nH]1)C(=O)N[C@@H](Cc1ccccc1)C(N)=O , what is it?
Reply text: 98

Inquiry: And then N=C(N)NCCC[C@@H](NC(=O)c1ccc(-c2ccccc2)cc1)C(=O)N[C@H](Cc1ccccc1)C(N)=O , what is it?
Reply text: 83

Inquiry: And then N=C(N)NCCC[C@H](NC(=O)Cc1ccccc1Cl)C(=O)N[C@@H](Cc1ccccc1)C(N)=O , what is it?
Reply text: 83

Inquiry: And then N=C(N)NCCC[C@H](NC(=O)Cc1ccc(O)cc1)C(=O)N[C@@H](Cc1ccccc1)C(N)=O , what is it?
Reply text: 76
